# MEASURED_ON: Mannose-6-phosphate isomerase (Homo sapiens)
# PROTOCOL: MPI inhibition at elevated mannose 6-phosphate – biochemical, fluorescence intensity, high mannose 6-phosphate, primary screen (AID 1220)
# SETTINGS: recombinant PMI enzyme, coupled fluorescence intensity; at 20 µM
Among all 190,000 compounds or so, about 1,300 (0.68%) were called active. No stated cut-off is given here; in the data, active means inhibition above about 50%; inactive means the rest. Many of the other results were omitted from the sample, so actives are more common in it than they were.
Response enum: YES (active), NO (inactive)

{"COMPOUND": "Cc1c(N=CC=Nc2c(C)n(C)n(-c3ccccc3)c2=O)c(=O)n(-c2ccccc2)n1C", "MEASURED_ON": "Mannose-6-phosphate isomerase (Homo sapiens)", "LABEL_VALUE": "NO"}
{"COMPOUND": "COc1cc2nc3c4ccccc4n(CC#N)c3nc2cc1OC", "MEASURED_ON": "Mannose-6-phosphate isomerase (Homo sapiens)", "LABEL_VALUE": "NO"}
{"COMPOUND": "Cc1csc(=Nc2c(C)n(C)n(-c3ccccc3)c2=O)n1-c1ccccc1", "MEASURED_ON": "Mannose-6-phosphate isomerase (Homo sapiens)", "LABEL_VALUE": "NO"}

Enquiry: Hey, what did the test say about Cc1cccc(C=Nc2ccc3c(c2)oc2ccccc23)c1O ?
Return: NO

Enquiry: Hey, what did the test say about Cc1c(N=c2scc(-c3ccccc3)n2C)c(=O)n(-c2ccccc2)n1C ?
Return: NO

Enquiry: Hey, what did the test say about Cc1cc(N)ccc1NC(=O)c1ccccc1 ?
Return: NO
